Molecular target: human TRβ ligand-binding domain (Homo sapiens, UniProt P10828)
Sequence (P10828 217-461 limits assumed): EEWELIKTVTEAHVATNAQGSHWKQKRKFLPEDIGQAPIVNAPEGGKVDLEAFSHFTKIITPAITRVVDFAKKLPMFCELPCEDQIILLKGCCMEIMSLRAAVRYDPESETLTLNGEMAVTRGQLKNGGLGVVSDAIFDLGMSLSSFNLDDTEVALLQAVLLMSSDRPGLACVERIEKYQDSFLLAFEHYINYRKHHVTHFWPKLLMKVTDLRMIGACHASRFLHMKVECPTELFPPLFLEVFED
Experiment: TRb-coa LanthaScreen TR-FRET coactivator (SRC-2 peptide) recruitment, agonist (TOX21_TRB_COA_Agonist_Followup_ratio, aeid 2244)
Assay type: biochemical
Parameters: host or cells: GeneBLAzer UAS-bla HEK 293T
Settings: read-out: EMax (% of Control) trb-coa-agonist-followup-1
Counter-ions that a name gives are not always drawn.
Experimental endpoint: Emax (%)

- Compound: "C=C(c1ccc(C(=O)O)cc1)c1cc2c(cc1C)C(C)(C)CCC2(C)C [Bexarotene, reference compound]"
  Target under test: "human TRβ ligand-binding domain (Homo sapiens, UniProt P10828)"
  Number: -0.427
- Compound: "CN(C)c1ccc(N=O)cc1"
  Target under test: "human TRβ ligand-binding domain (Homo sapiens, UniProt P10828)"
  Number: -0.165
- Compound: "CC(C)(C)CC(C)(C)c1ccc(O)c(Cc2ccc(Cl)cc2Cl)c1 [Clofoctol, reference compound]"
  Target under test: "human TRβ ligand-binding domain (Homo sapiens, UniProt P10828)"
  Number: 64.9
- Compound: "O=C(Cl)OCCOCCOC(=O)Cl [Diethlylene glycol bis chloroformate]"
  Target under test: "human TRβ ligand-binding domain (Homo sapiens, UniProt P10828)"
  Number: -0.349
- Compound: "CC1=C(/C=C/C(C)=C\\C=C\\C(C)=C\\C(=O)O)C(C)(C)CCC1 [9-cis Retinoic acid, reference compound]"
  Target under test: "human TRβ ligand-binding domain (Homo sapiens, UniProt P10828)"
  Number: -0.274
- Compound: "CC1=C(/C=C/C(C)=C/C=C/C(C)=C\\C(=O)O)C(C)(C)CCC1 [13-cis Retinoic acid, reference compound]"
  Target under test: "human TRβ ligand-binding domain (Homo sapiens, UniProt P10828)"
  Number: -0.0945
- Compound: "CSCC[C@H](NC(=O)[C@H](Cc1ccc(OS(=O)(=O)O)cc1)NC(=O)[C@@H](N)CC(=O)O)C(=O)NCC(=O)N[C@@H](Cc1c[nH]c2ccccc12)C(=O)N[C@@H](CCSC)C(=O)N[C@@H](CC(=O)O)C(=O)N[C@@H](Cc1ccccc1)C(N)=O [Sincalide, reference compound]"
  Target under test: "human TRβ ligand-binding domain (Homo sapiens, UniProt P10828)"
  Number: -0.125
- Compound: "NCC(=O)CCC(=O)O [Aminolevulinic acid hydrochloride]"
  Target under test: "human TRβ ligand-binding domain (Homo sapiens, UniProt P10828)"
  Number: 3.6
- Compound: "O=C(O)Cc1cc(I)c(Oc2cc(I)c(O)c(I)c2)c(I)c1"
  Target under test: "human TRβ ligand-binding domain (Homo sapiens, UniProt P10828)"
  Number: 122
- Compound: "c1csc(-c2ccc(-c3cccs3)s2)c1"
  Target under test: "human TRβ ligand-binding domain (Homo sapiens, UniProt P10828)"
  Number: -0.0945
- Compound: "O=C(O)CCNC(=O)c1ccccc1 [Betamipron, reference compound]"
  Target under test: "human TRβ ligand-binding domain (Homo sapiens, UniProt P10828)"
  Number: 30.8
- Compound: "CC1=C(/C=C/C(C)=C/C=C/C(C)=C/C(=O)O)C(C)(C)CCC1 [all trans-Retinoic acid, reference compound]"
  Target under test: "human TRβ ligand-binding domain (Homo sapiens, UniProt P10828)"
  Number: 0
- Compound: "C[C@H](CCC(=O)NCC(=O)O)[C@H]1CC[C@H]2[C@@H]3[C@H](O)C[C@@H]4C[C@H](O)CC[C@]4(C)[C@H]3C[C@H](O)[C@]12C"
  Target under test: "human TRβ ligand-binding domain (Homo sapiens, UniProt P10828)"
  Number: -0.225
- Compound: "Cc1occc(=O)c1O"
  Target under test: "human TRβ ligand-binding domain (Homo sapiens, UniProt P10828)"
  Number: -0.3
- Compound: "CNC(=O)ON=C(CSC)C(C)(C)C"
  Target under test: "human TRβ ligand-binding domain (Homo sapiens, UniProt P10828)"
  Number: -0.165
